Molecular target: MBP-TFEB bHLH-LZ (Homo sapiens, UniProt P19484 230-319)
Sequence (P19484 230-319): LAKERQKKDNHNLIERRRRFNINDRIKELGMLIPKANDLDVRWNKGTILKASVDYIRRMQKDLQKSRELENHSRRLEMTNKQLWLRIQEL
Experiment: competition
value-type: pIC50
pIC50 here is simply -log10 of the concentration when that concentration is written in mol/L.

For record CLEAR DNA (unlabeled) (dsDNA) DNA 1: AGGTCACGTGACCGG DNA 2: CCGGTCACGTGACCT the listed pIC50 is 7.21
